method description: Apparent permeability from apical to basolateral side in human Caco2 cells
Type: ADME, cell-based
condition summary: Caco-2
readout label: Papp A→B (×10⁻⁶ cm/s)

[[record]]
smiles_data = "COc1cnc2ccc(=O)n(CCN3CCC(NC(=O)c4cnc(C)c(C#N)c4)CC3)c2c1"
readout_label = "Papp A→B"
output_unit = "×10⁻⁶ cm/s"
recorded_value = 4.2

[[record]]
smiles_data = "COc1cnc2ccc(=O)n(CCN3CCC(NCc4cnc(C)c(C#N)c4)CC3)c2c1"
readout_label = "Papp A→B"
output_unit = "×10⁻⁶ cm/s"
recorded_value = 10.5

[[record]]
smiles_data = "O=C1COc2ccc(CN[C@H]3CCN(CCn4c(=O)ccc5ncc(F)cc54)C[C@H]3F)nc2N1"
readout_label = "Papp A→B"
output_unit = "×10⁻⁶ cm/s"
recorded_value = 8.1

[[record]]
smiles_data = "Cc1nc(CNC2CCN(CCn3c(=O)ccc4ccc(C#N)cc43)CC2)ccc1C#N"
readout_label = "Papp A→B"
output_unit = "×10⁻⁶ cm/s"
recorded_value = 17.1

[[record]]
smiles_data = "N#Cc1ccc2ccc(=O)n(CCN3CCC(NCc4cc5c(cn4)OCCO5)CC3)c2c1"
readout_label = "Papp A→B"
output_unit = "×10⁻⁶ cm/s"
recorded_value = 1.9

